system: SARS-CoV-2; experiment: CPE-based HTS assay (CPE reduction quantified by CCK-8 cell viability); conditions: Severe acute respiratory syndrome coronavirus 2, Vero C1008, 48 h; read-out: protection from CPE
measured_metric: inhibition at 10 µM

INSERT INTO results (sample_smiles, endpoint_result) VALUES
  ('C[C@]12CC[C@H](O)C[C@H]1CC[C@@H]1[C@@H]2CC[C@]2(C)[C@@H](c3ccc(=O)oc3)CC[C@]12O', '> 50%'),
  ('COc1ccc2cc1Oc1ccc(cc1)C[C@H]1c3c(cc4c(c3Oc3cc5c(cc3OC)CCN(C)[C@@H]5C2)OCO4)CCN1C', '> 50%'),
  ('COc1ccc2cc1Oc1ccc(cc1)C[C@H]1c3cc(c(OC)cc3CCN1C)Oc1c(O)c(OC)cc3c1[C@H](C2)N(C)CC3', '> 50%');

---

tested on: SARS-CoV-2; assay: Antiviral assay (viral RNA in supernatant by qRT-PCR); assay type: cell-based, SARS-CoV-2 (WIV-04); details: Severe acute respiratory syndrome coronavirus 2, Vero C1008; read-out: EC50
measured_metric: EC50 (nM)

INSERT INTO results (molecule, endpoint_result) VALUES
  ('C[C@H]1COC2=C1C(=O)C(=O)c1c2ccc2c1CCCC2(C)C [Cryptotanshinone]', 5020),
  ('C[C@]12CC[C@H](O)C[C@H]1CC[C@@H]1[C@@H]2CC[C@]2(C)[C@@H](c3ccc(=O)oc3)CC[C@]12O [Bufalin]', 18),
  ('C=C1C(=O)[C@]23[C@H](O)[C@H]1CC[C@H]2[C@@]12CO[C@]3(O)[C@@H](O)[C@@H]1C(C)(C)CC[C@@H]2O [Oridonin]', 1460),
  ('C=C1CC[C@H]2C(=C)CC[C@H]3C(=C)C(=O)O[C@@H]3[C@@H]12 [Dehydrocostus lactone]', 2320);
